- Test system: SN12C renal
- measurement protocol: NCI tumour cell line growth inhibition, 48 h
property: TGI

CNC(=O)N1CN(c2ccccc2)C2(CCN(CCCC(=O)c3ccc(F)cc3)CC2)C1=O : 75.4 µM
Cc1cc(N/N=C/c2nc(-c3ccc(Br)cc3)oc2C)c2cc(Cl)ccc2n1 : > 100 µM
C[C@@H]1CC[C@H]2C(COCCOCC3=C(C(F)(F)F)O[C@@H]4O[C@@]5(C)CC[C@H]6[C@H](C)CC[C@@H]3[C@@]46OO5)=C(C(F)(F)F)O[C@@H]3O[C@@]4(C)CC[C@@H]1[C@]32OO4 : > 100 µM
CCO[C@]12C[C@H](OC)[C@@]3(O)CC(C1[C@H]3OCc1ccccc1)C13C4C2[C@H](OC)C1[C@](COC)(CN4CC)[C@H](O)C[C@@H]3OC (some centres not stated) : > 100 µM
CCCCNCC(=O)O[C@]1(CC)C(=O)OCc2c1cc1n(c2=O)Cc2cc3ccccc3nc2-1 : > 16.2 µM
CCOC(=O)/C(C(=S)Nc1ccccc1)=C(/N)N1CCCC1 : > 100 µM
O=[N+]([O-])/C=C1\COCc2cc3c(cc21)OCO3 : 47.2 µM

meta.source: PubChem BioAssay (NCI)
